Data credit: PubChem BioAssay (NCI)

- System: DU-145 prostate
- Assay procedure: NCI-60 one-dose screen, 48 h (100 = growth as untreated, 0 = no growth, -100 = all killed)
- Measurement context: 10 µM unless noted
Compounds without any hit were thinned out: in the full panel of roughly 83,000, 20% have a hit.
Measurement label: growth (%)
Report only the number, with the unit % understood.

// solved cases for growth follow
                            smiles_notation  value
0  Cc1nc2cc(O)c(O)cc2cc1Oc1ccc(NC(=O)Nc2ccc(Cl)c(Cl)c2)cc1   60.3
1  O=C(NNC(=O)c1nc2cc(F)ccc2n2cccc12)c1cnccn1   44.5

Proceeding to the next molecule to report its growth.
Problem: Give the measured growth of `O=C(O)/C=C/C(=O)Nc1cccc(Cn2nnc3cc(Cl)c(Cl)cc32)c1` .
Solution: 119
